Numbers sourced from patent US7563791B2.

# System: HCT116 cells
# protocol.notes: Tumor cell proliferation (Alamar Blue), HCT116
# Type: cell-based
# measurement.context: Homo sapiens, HCT-116, 72 h, bounds given in μM
reported.endpoint: IC50

Use the examples below as a reference point.
> print(dat)
                                   compound  reported.endpoint  experimental.result
1  CCOC(=O)c1cn2ncnc(N)c2c1-c1ccc(NC(=O)Nc2cc(C(F)(F)F)ccn2)c(F)c1 [Example 242]               IC50          1.5 to 5 µM
2  Nc1ncnn2cc(-c3cnco3)c(-c3ccc(NC(=O)Nc4cc(F)cc(C(F)(F)F)c4)cc3)c12 [Example 159]               IC50             < 1.5 µM

[ask] Quick one: IC50 of COCCOCc1cn2ncnc(N)c2c1-c1ccc(NC(=O)Nc2cc(C(F)(F)F)ccc2F)cc1 [Example 157] ?
[reply] 1.5 to 5 µM

[ask] Quick one: IC50 of Nc1ncnn2cc(C(=O)NC3CC3)c(-c3ccc(NC(=O)Nc4cc(C(F)(F)F)ccn4)cc3)c12 [Example 82] ?
[reply] 1.5 to 5 µM

[ask] Quick one: IC50 of CCNC(=O)c1cn2ncnc(N)c2c1-c1ccc(NC(=O)Nc2cc(C(F)(F)F)ccc2F)cc1 [Example 71] ?
[reply] < 1.5 µM

###

# Tested on: HCT116 cells
# protocol.notes: Tumor cell proliferation (Alamar Blue), HCT116
# Format: cell-based
# measurement.context: Homo sapiens, HCT-116, 72 h, bounds given in μM
Parameter IC50: see the listing below.

Use the examples below as a reference point.
> print(dat)
                                 smiles.str  experimental.result
1  COCc1cn2ncnc(N)c2c1-c1ccc(NC(=O)Nc2cc(C(F)(F)F)ccc2F)c(F)c1          1.5 to 5 µM
2  Cn1nc(C(C)(C)C)cc1NC(=O)Nc1ccc(-c2c(C(=O)NCC(F)(F)F)cn3ncnc(N)c23)cc1           5 to 10 µM
3  Nc1ncnn2cc(-c3nnco3)c(-c3ccc(NC(=O)Nc4cc(C(F)(F)F)ccc4F)cc3)c12          1.5 to 5 µM

[ask] Quick one: IC50 of CC(=O)c1cn2ncnc(N)c2c1-c1ccc(NC(=O)Nc2cc(C(F)(F)F)ccc2F)cc1 ?
[reply] < 1.5 µM

###

Parameter IC50: see the listing below.
# System: MDA-MB-231 cells
# protocol.notes: Tumor cell proliferation (Alamar Blue), MDA-MB-231
# Assay type: cell-based
# measurement.context: Homo sapiens, MDA-MB-231, 72 h

Use the examples below as a reference point.
> print(dat)
                                  smiles.str  experimental.result
 1  Nc1ncnn2cc(-c3cnco3)c(-c3ccc(NC(=O)Nc4cc(C(F)(F)F)ccc4F)cc3)c12             < 500 nM
 2  N#CCc1cn2ncnc(N)c2c1-c1ccc(NC(=O)Nc2cc(C(F)(F)F)ccn2)c(F)c1             > 500 nM
 3  N#Cc1cn2ncnc(N)c2c1-c1ccc(NC(=O)Nc2cc(C(F)(F)F)ccc2F)cc1             > 500 nM
 4  Nc1ncnn2cc(-c3cnco3)c(-c3ccc(NC(=O)Nc4cc(C(F)(F)F)ccn4)cc3)c12             < 500 nM
 5  CCOC(=O)c1cn2ncnc(N)c2c1-c1ccc(NC(=O)Nc2cc(C(C)(C)C)nn2-c2ccc(F)cc2)cc1             < 500 nM
 6  Nc1ncnn2cc(-c3nc(CN4CCOCC4)co3)c(-c3ccc(NC(=O)Nc4cc(C(F)(F)F)ccc4F)cc3)c12             > 500 nM
 7  Nc1ncnn2cc(-c3cnco3)c(-c3ccc(NC(=O)Nc4cc(F)cc(C(F)(F)F)c4)cc3)c12             > 500 nM
 8  Nc1ncnn2cc(C(=O)NC3CC3)c(-c3ccc(NC(=O)Nc4cc(C(F)(F)F)ccn4)cc3)c12             > 500 nM
 9  CNC(=O)c1cn2ncnc(N)c2c1-c1ccc(NC(=O)Nc2cc(C(F)(F)F)ccc2F)cc1             > 500 nM
10  CC(=O)c1cn2ncnc(N)c2c1-c1ccc(NC(=O)Nc2cc(C(F)(F)F)ccc2F)cc1             > 500 nM

[ask] Can you look up IC50 on MDA-MB-231 cells for Nc1ncnn2cc(C(=O)NCC(F)(F)F)c(-c3ccc(NC(=O)Nc4cc(C(F)(F)F)ccn4)cc3)c12 ?
[reply] > 500 nM

[ask] Can you look up IC50 on MDA-MB-231 cells for CCNC(=O)c1cn2ncnc(N)c2c1-c1ccc(NC(=O)Nc2cc(C(F)(F)F)ccc2F)cc1 ?
[reply] < 500 nM

[ask] Can you look up IC50 on MDA-MB-231 cells for Nc1ncnn2cc(CO)c(-c3ccc(NC(=O)Nc4cc(C(F)(F)F)ccc4F)c(F)c3)c12 ?
[reply] > 500 nM
